experiment: Pharmacokinetics experiment in rats; format: in vivo; conditions: rat; male SD rats, oral dosing 20 mg/kg, plasma; read-out: Area under the curve (AUC)
property: AUC (ng·h/mL)

# molecule, number
rows = [
    ("CCN(c1cc(N2Cc3cn(C)cc3C2)cc(C(=O)NCc2c(C)cc(C)[nH]c2=O)c1C)C1CCOCC1", 1250),
    ("CCN(c1cc(-c2ccc3c(c2)CCC3N2CCOCC2)cc(C(=O)NCc2c(C)cc(C)[nH]c2=O)c1C)C1CC(C)OC(C)C1 (centres unmarked)", 1690),
    ("CCN(c1cc(-c2ccc3c(c2)CCC3N2CCOCC2)c(Cl)c(C(=O)NCc2c(C)cc(C)[nH]c2=O)c1C)C1CCOCC1 (centres unmarked)", 1440),
    ("CCN(c1cc(N2Cc3ccccc3C2)cc(C(=O)NCc2c(C)cc(C)[nH]c2=O)c1C)C1CCOCC1", 1540),
    ("CCN(c1cc(-c2ccc3c(c2)CCC3N2CCOCC2)cc(C(=O)NCc2c(OC)cc(C)[nH]c2=O)c1C)C1CCOCC1 (centres unmarked)", 1610),
]

====

molecular target: Mutant EZH2 (Y641N) (Homo sapiens, UniProt Q15910, Y641N); construct: purchased BPS 51004; test: AlphaLISA assay on mutant PRC2 complex, EZH2 Y641N; type: biochemical
Sequence (Q15910 whole entry Y641N): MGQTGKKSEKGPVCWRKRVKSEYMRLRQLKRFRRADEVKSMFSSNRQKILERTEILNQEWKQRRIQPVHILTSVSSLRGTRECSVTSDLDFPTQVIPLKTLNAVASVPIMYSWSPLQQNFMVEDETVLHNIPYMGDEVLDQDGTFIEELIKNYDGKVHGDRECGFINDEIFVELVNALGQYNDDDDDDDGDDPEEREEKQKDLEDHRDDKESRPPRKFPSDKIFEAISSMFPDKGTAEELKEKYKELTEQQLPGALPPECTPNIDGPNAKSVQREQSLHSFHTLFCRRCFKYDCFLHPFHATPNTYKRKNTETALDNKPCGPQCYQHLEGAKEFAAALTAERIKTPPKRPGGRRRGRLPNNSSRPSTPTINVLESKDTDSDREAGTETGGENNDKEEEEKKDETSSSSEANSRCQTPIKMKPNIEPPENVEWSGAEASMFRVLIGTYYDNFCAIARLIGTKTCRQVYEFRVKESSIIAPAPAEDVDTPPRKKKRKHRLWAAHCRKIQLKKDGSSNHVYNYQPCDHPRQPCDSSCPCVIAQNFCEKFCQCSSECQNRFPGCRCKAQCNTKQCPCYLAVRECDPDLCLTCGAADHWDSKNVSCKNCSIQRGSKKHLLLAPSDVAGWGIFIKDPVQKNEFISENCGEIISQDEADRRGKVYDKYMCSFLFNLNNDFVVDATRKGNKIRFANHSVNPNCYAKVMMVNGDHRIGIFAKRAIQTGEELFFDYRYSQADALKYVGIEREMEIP
Sequence (O75530 whole entry partner): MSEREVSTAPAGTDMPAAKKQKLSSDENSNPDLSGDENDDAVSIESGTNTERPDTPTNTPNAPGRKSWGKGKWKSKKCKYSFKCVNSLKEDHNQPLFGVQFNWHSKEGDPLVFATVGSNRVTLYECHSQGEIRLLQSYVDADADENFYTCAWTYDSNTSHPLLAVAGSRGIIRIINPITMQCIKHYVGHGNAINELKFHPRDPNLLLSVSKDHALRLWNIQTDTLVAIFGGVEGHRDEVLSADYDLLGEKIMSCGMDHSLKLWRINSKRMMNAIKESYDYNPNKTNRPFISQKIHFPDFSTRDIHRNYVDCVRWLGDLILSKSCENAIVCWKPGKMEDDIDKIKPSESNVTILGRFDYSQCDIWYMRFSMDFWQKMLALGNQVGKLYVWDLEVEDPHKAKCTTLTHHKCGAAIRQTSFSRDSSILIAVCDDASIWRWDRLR
Sequence (Q15022 whole entry partner): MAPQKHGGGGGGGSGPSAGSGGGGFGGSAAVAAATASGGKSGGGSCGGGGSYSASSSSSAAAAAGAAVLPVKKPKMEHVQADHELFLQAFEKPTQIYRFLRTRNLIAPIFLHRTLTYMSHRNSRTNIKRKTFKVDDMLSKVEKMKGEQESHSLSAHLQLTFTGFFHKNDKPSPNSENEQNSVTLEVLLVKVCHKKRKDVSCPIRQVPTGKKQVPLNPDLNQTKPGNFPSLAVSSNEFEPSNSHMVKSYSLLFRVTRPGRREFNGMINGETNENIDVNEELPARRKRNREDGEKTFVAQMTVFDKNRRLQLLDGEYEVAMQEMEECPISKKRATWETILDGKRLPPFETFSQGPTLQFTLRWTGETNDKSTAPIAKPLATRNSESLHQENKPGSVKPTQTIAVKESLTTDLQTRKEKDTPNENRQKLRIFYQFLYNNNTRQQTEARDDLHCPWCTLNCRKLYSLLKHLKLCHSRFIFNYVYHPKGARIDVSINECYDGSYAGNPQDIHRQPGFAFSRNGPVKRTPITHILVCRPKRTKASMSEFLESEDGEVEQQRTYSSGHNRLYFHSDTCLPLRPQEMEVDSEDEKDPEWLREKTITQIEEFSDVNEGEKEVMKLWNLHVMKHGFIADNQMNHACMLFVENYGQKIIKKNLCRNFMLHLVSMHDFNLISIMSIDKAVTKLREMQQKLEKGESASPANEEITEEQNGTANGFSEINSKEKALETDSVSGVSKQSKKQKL
Sequence (Q09028 whole entry partner): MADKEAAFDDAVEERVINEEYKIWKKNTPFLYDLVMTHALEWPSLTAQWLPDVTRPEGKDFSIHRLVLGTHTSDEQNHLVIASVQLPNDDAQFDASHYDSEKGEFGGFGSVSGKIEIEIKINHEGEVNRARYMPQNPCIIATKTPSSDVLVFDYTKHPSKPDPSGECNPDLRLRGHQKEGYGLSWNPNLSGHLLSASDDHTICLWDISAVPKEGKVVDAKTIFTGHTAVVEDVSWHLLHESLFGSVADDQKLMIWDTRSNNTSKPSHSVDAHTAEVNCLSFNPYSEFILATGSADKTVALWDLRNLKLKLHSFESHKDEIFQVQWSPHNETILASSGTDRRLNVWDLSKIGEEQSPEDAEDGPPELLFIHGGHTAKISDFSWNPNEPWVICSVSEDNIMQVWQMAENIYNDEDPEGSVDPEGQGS
Sequence (Q6ZN18 whole entry partner): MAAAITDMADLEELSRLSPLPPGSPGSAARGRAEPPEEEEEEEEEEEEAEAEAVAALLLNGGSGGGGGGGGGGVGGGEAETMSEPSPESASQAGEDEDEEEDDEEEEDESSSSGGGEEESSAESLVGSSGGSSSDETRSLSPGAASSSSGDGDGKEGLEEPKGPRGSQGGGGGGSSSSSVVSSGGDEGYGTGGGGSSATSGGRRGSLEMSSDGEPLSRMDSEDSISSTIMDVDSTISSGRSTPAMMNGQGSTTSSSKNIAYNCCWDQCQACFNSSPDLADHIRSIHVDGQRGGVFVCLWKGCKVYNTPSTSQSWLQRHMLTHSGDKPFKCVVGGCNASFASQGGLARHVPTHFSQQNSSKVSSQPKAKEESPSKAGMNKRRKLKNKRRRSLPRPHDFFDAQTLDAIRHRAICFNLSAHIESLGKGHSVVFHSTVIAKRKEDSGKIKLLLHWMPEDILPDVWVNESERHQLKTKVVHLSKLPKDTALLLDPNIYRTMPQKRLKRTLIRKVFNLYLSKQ
property: IC50 (nM)

# compound, unit_spec, IC50
rows = [
    ("CCN(c1cc(-c2cc3c(cc2F)C(N2CCOCC2)CC3)c(F)c(C(=O)NCc2c(C)cc(C)[nH]c2=O)c1C)C1CCOCC1 (stereo not shown)", "nM", 0.3),
]

1 = CCN(c1cc(N2CCc3ccccc3C2)cc(C(=O)NCc2c(C)cc(C)[nH]c2=O)c1C)C1CCOCC1
2 = CCN(c1cc(-c2ccc3c(c2)CCC3N2CCOCC2)c(Cl)c(C(=O)NCc2c(C)cc(C)[nH]c2=O)c1C)C1CCOCC1 (stereo not shown)
3 = CCN(c1cc(N2Cc3ccccc3C2)cc(C(=O)NCc2c(C)cc(C)[nH]c2=O)c1C)C1CCOCC1
Query :: Ascending by IC50, please. Labels, ranked as asked.
Result :: 3, 2, 1

A = CCN(c1cc(N2Cc3ccc(N4CCOCC4)cc3C2)cc(C(=O)NCc2c(C)cc(C)[nH]c2=O)c1C)C1CCOCC1
B = C=CC(=O)Nc1ccc2c(c1)CN(c1cc(C(=O)NCc3c(C)cc(C)[nH]c3=O)c(C)c(N(CC)C3CCOCC3)c1)C2
Query :: Returns the identifier with the smallest measured IC50 among A and B . # reply format: chosen label
Result :: B

====

biological target: Mutant EZH2 (A677G) (Homo sapiens, UniProt Q15910, A677G); construct: purchased BPS 51004; assay: AlphaLISA assay on mutant PRC2 complex, EZH2 A677G; assay type: biochemical
Sequence (Q15910 whole entry A677G): as the sequence (Q15910 whole entry Y641N) above, with N641Y, A677G counted along it
Sequence (O75530 whole entry partner): as the sequence (O75530 whole entry partner) above
Sequence (Q15022 whole entry partner): as the sequence (Q15022 whole entry partner) above
Sequence (Q09028 whole entry partner): as the sequence (Q09028 whole entry partner) above
Sequence (Q6ZN18 whole entry partner): as the sequence (Q6ZN18 whole entry partner) above
property: IC50 (nM)

Here is how some compounds turned out for IC50.
# compound, unit_spec, number
rows = [
    ("CCN(c1cc(-c2cc3c(cc2F)C(N2CCOCC2)CC3)cc(C(=O)NCc2c(C)cc(C)[nH]c2=O)c1C)C1CCOCC1 (stereo not drawn)", "nM", 0.61),
    ("CCN(c1cc(-c2cc3c(cc2F)C(N2CCOCC2)CC3)c(F)c(C(=O)NCc2c(C)cc(C)[nH]c2=O)c1C)C1CCOCC1 (stereo not drawn)", "nM", 0.5),
    ("CCN(c1cc(N2Cc3ccc(NC4CCOCC4)cc3C2)cc(C(=O)NCc2c(C)cc(C)[nH]c2=O)c1C)C1CCOCC1", "nM", 0.66),
    ("CCN(c1cc(N2CCc3ccccc3C2)cc(C(=O)NCc2c(C)cc(C)[nH]c2=O)c1C)C1CCOCC1", "nM", 0.74),
]

1 = CCN(c1cc(N2Cc3ccc(N4CCOCC4)cc3C2)cc(C(=O)NCc2c(C)cc(C)[nH]c2=O)c1C)C1CCOCC1
2 = CCN(c1cc(N2Cc3ccccc3C2)cc(C(=O)NCc2c(C)cc(C)[nH]c2=O)c1C)C1CCOCC1
Query :: Of 1 and 2 , whose reported IC50 is the larger number? Refer to your chosen item by its label in the answer.
Result :: 1
